Entry source: patent US4992426A

Experiment: Toxicity to U937 cells
Type: cell-based
Conditions: human, u937 cells; @ 1μg/ml; read-out: % Control (U937 cells)
MEASURE: viability (%)
Give the number; % is assumed, so skip it.

// query Return reported viability. Input molecule: NC(=O)c1ncn([C@@H]2O[C@H](COS(N)(=O)=O)[C@@H](O)[C@H]2O)n1 [Compound 2]
// result 10
